Biological target: 4-galactosyl-N-acetylglucosaminide 3-alpha-L-fucosyltransferase FUT6 (Homo sapiens, UniProt P51993)
Sequence (P51993 whole entry): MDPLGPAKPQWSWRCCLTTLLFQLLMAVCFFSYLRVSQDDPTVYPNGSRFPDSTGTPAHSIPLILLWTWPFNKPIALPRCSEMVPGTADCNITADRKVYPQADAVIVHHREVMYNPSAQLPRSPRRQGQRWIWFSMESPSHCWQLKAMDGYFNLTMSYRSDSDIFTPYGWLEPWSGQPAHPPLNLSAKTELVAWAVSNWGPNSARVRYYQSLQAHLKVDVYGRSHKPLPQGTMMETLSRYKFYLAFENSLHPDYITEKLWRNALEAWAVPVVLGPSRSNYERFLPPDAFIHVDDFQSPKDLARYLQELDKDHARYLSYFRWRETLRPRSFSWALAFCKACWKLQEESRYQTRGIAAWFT
property: IC50 (nM)
Respond with the bare value in nM.

Exercise: // lookup IC50 for Nc1nc2c(ncn2[C@@H]2O[C@H](COP(=O)(O)OP(=O)(O)OCc3cn(CCCCC(=O)NCc4ccc(-c5ccccc5)cc4)nn3)[C@@H](O)[C@H]2O)c(=O)[nH]1
Key: 610
